Below, each entry is listed alongside its reported IC50.
- experimentalSystem: SIK1 (Homo sapiens, UniProt P57059)
- Construct: purchased Carna Biosciences 02-131
- Sequence (P57059 whole entry): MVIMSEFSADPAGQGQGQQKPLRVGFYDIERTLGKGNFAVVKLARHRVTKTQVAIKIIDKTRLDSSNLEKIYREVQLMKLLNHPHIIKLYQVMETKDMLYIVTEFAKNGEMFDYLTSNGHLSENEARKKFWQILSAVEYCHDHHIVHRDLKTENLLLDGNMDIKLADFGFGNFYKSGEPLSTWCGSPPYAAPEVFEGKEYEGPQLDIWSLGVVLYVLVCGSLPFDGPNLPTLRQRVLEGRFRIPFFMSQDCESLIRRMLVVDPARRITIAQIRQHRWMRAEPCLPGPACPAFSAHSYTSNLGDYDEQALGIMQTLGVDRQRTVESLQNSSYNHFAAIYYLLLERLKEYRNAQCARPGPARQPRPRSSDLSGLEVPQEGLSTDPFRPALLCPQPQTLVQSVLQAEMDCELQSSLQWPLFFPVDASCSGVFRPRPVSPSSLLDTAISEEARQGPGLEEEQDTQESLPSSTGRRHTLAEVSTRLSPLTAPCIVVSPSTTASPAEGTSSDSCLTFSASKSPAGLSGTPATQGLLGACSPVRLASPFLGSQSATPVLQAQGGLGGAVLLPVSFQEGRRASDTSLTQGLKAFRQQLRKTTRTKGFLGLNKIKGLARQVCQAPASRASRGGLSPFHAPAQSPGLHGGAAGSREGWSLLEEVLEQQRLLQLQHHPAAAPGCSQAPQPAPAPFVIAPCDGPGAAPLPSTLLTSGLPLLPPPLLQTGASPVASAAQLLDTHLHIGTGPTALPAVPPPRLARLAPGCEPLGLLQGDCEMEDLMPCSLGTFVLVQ
- testDescription: biochemical
- studyConditions: 33P radioactive SIK kinase assay, AMARA peptide, 10 μM ATP; read-out: SIK1 IC50

# annotated cases, reported IC50 shown
1. COc1cc(-n2cnc3cc(-c4cnn(C)c4)ccc32)cc(OC)c1C(=O)N1CC(O)(C2CC2)C1: 10 to 100 nM
2. CCn1cc(-c2ccc3c(c2)ncn3-c2cc(OC)c(C(=O)NC3CC3)c(OC(F)F)c2)cn1: 10 to 100 nM
3. COc1cc(-c2cnc3cc(-c4cnn(C)c4)ccn23)cc2c1C(=O)N(C1CC1)CC2: 10 to 100 nM
4. COc1cc(-n2cnc3cc(-c4cnn(C)c4)ccc32)cc(OC)c1C(=O)Nc1cn(C)cn1: 100 to 500 nM
5. COc1cc(-c2cnc3cc(-c4cnn(C)c4)ccn23)cc(OC)c1C(=O)NC1CC1: 0.01 to 10 nM

Q. Give me measured IC50, please, for this molecule: CCNC(=O)c1c(OC)cc(-c2cnn3cc(-c4cnn(CC)c4)cnc23)cc1OC
A. 10 to 100 nM

Q. Give me measured IC50, please, for this molecule: COc1cc(-c2cnc3cc(-c4cnn(C)c4)ccn23)cc(O)c1C(=O)NCC(F)(F)F
A. 10 to 100 nM

Q. Give me measured IC50, please, for this molecule: COc1cc(-n2cnc3cc(-c4ccc(N(C)C)nc4)ccc32)cc(OC)c1C(=O)NCC(F)(F)F
A. 100 to 500 nM

Q. Give me measured IC50, please, for this molecule: COc1cc(-n2cnc3cc(-c4nnc(C)o4)ccc32)cc(OC)c1C(=O)NCC(F)(F)F
A. > 500 nM

* * *

- experimentalSystem: SIK2 (Homo sapiens)
- Construct: purchased ThermoFisher Scientific PV4792
- testDescription: biochemical
- studyConditions: 33P radioactive SIK kinase assay, AMARA peptide, 10 μM ATP
measuredQuantity: IC50

# annotated cases, reported IC50 shown
1) COc1cc(-n2cnc3cc(-c4cnn(C)c4)ccc32)cc(OC)c1C(=O)Nc1cn(C)cn1: 100 to 500 nM
2) CCn1cc(-c2ccc3c(c2)ncn3-c2cc(OC)c(C(=O)NC3CC3)c(OC(F)F)c2)cn1: 0.01 to 10 nM
3) COc1cc(-n2cnc3cc(-c4cnn(C)c4)ccc32)cc(OC)c1C(=O)NCC(C)C: 10 to 100 nM
4) COc1cc(-n2cnc3cc(-n4cnc(C)c4)ccc32)cc(OC)c1C(=O)NCC(F)(F)F: 10 to 100 nM
5) CCN1Cc2cc(-c3cnc4cc(-c5cnn(C)c5)ccn34)cc(NCCO)c2C1=O: 10 to 100 nM

Q. Give me measured IC50, please, for this compound: COc1cc(-n2cnc3cc(-c4cnn(C)c4)ccc32)cc(OC)c1C(=O)NC1CCC[C@H]1O (stereo in doubt)
A. 10 to 100 nM

Q. Give me measured IC50, please, for this compound: COc1cc(-n2cnc3cc(-c4cnn(C)c4)ccc32)cc(OC)c1C(=O)NC(C)(C)C
A. > 500 nM

Q. Give me measured IC50, please, for this compound: COc1cc(-c2cnc3cc(-c4cnn(C)c4)ccn23)cc(O)c1C(=O)NCC(F)(F)F
A. 0.01 to 10 nM

* * *

- experimentalSystem: SIK2 (Homo sapiens)
- Construct: purchased ThermoFisher Scientific PV4792
- testDescription: biochemical
- studyConditions: 33P radioactive SIK kinase assay, AMARA peptide, 10 μM ATP
measuredQuantity: IC50

# annotated cases, reported IC50 shown
1) COc1cc(-c2cnc3cc(-c4cnccc4C(N)=O)ccn23)cc(OC)c1C(=O)NCC(F)(F)F: > 500 nM
2) COc1cc(-n2cnc3cc(-c4cnn(C)c4)ccc32)cc(OC)c1C(=O)NCC(F)(F)F: 0.01 to 10 nM
3) COc1cc(-c2cnc3cc(-c4cnn(C)c4)ccn23)cc(OC)c1C(=O)NC1CS(=O)(=O)C1: 0.01 to 10 nM

Q. Give me measured IC50, please, for this compound: COc1cc(-n2cnc3cc(-c4cnn(C)c4)ccc32)cc(OC)c1C(=O)N1CC(OC)C1
A. 10 to 100 nM

Q. Give me measured IC50, please, for this compound: COc1cc(-n2cnc3cc(-c4cn(C)nn4)ccc32)cc(OC)c1C(=O)NCC(F)(F)F
A. 10 to 100 nM

Q. Give me measured IC50, please, for this compound: COc1cc(-c2cnc3cc(-c4cnn(C)c4)ccn23)cc(C)c1C(=O)NCC(F)(F)F
A. 10 to 100 nM

Q. Give me measured IC50, please, for this compound: COc1cc(-c2cnc3cc(-c4cnn(C)c4)ccn23)cc(OC)c1C(=O)NC(C(C)C)C(F)(F)F (centres unmarked)
A. 10 to 100 nM

Q. Give me measured IC50, please, for this compound: COc1cc(-n2cnc3cc(-c4cnn(C)c4)ccc32)cc(OC)c1C(=O)NCc1nccn1C
A. 10 to 100 nM

* * *

- experimentalSystem: SIK3 (Homo sapiens, UniProt Q9Y2K2)
- Construct: purchased SignalChem S12-11G-100
- Sequence (Q9Y2K2 whole entry): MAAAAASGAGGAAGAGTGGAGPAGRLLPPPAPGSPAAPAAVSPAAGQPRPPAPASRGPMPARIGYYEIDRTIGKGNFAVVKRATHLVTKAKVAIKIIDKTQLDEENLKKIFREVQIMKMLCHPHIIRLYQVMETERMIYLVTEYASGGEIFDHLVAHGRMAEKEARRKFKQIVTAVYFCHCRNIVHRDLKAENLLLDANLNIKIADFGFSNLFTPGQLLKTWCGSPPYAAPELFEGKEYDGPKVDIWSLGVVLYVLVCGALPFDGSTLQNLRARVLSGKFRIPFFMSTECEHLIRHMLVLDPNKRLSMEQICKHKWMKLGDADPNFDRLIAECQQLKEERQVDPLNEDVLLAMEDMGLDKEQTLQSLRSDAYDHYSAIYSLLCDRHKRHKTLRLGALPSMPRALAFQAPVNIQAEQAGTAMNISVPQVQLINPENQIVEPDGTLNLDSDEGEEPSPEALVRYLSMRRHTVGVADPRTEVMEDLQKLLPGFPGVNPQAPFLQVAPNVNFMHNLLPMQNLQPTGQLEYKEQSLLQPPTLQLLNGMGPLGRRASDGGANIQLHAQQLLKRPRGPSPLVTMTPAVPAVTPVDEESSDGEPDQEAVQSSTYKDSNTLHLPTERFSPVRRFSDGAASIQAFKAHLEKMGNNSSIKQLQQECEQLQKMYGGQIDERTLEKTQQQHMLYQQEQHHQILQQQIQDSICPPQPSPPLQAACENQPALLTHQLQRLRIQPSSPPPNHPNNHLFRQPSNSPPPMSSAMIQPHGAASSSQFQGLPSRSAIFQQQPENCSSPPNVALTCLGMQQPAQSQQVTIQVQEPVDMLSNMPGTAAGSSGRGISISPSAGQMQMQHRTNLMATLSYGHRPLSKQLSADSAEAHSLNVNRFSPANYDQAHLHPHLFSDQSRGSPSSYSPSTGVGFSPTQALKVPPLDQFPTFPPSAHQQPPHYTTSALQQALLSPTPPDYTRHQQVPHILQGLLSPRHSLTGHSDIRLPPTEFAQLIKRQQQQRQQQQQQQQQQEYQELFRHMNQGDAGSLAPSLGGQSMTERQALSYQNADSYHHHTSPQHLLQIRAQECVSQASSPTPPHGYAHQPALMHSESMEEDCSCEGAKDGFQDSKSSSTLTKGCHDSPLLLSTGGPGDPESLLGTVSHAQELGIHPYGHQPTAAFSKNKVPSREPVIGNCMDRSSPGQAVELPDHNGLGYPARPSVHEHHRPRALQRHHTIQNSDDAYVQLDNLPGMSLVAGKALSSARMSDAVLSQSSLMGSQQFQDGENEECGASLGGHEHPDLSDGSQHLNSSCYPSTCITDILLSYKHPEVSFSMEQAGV
- testDescription: biochemical
- Description: The principle of the ^33P radioactive kinase assay consists in measuring the incorporated ^33P into the substrate AMARA peptide when phosphorylated by SIK1, SIK2 or SIK3 using [^33P]-g-ATP, which correlates with kinase activity. […] After harvesting the kinase reactions, the filter plates are washed 6 times with phosphoric acid (75 mM). […] The top of the plates are sealed with TopSeal-A. Read-out is performed with a TopCount instrument (PerkinElmer Inc.).
pIC50: −log10 of the molar value.
Below, each entry is listed alongside its reported pIC50.

# annotated cases, reported pIC50 shown
1) COc1cc(-n2cnc3cc(-c4cnn(C)c4)ccc32)cc(OC)c1C(=O)NC(C)C#N (stereo not shown): 7.00 to 8.00
2) COc1cc(-c2cnc3cc(-c4cnn(C)c4)ccn23)cc(Cl)c1C(=O)NCC(F)(F)F: 8.00 to 11.00
3) COc1cc(-n2cnc3cc(-c4cnn(C(F)F)c4)ccc32)cc(OC)c1C(=O)NCC(F)(F)F: 8.00 to 11.00

Q. Give me measured pIC50, please, for this compound: CNc1cc(-c2cnc3cc(-c4cnn(C)c4)ccn23)cc(OC)c1C(=O)NCC(F)(F)F
A. 8.00 to 11.00

Q. Give me measured pIC50, please, for this compound: COc1cc(-n2cnc3cc(-c4cnn(C5COC5)c4)ccc32)cc(OC)c1C(=O)NCC(F)(F)F
A. 8.00 to 11.00

Q. Give me measured pIC50, please, for this compound: COc1cc(-n2cnc3cc(-c4cnn(C)c4)ccc32)cc(OC)c1C(=O)N1CCC1C (stereo not shown)
A. < 6.30

Q. Give me measured pIC50, please, for this compound: CCNC(=O)c1c(OC)cc(-c2cnc3cc(-c4cc(C)no4)ccn23)cc1OC(F)F
A. 8.00 to 11.00

Q. Give me measured pIC50, please, for this compound: CCOC(=O)Cn1cc(-c2ccn3c(-c4cc(OC)c(C(=O)NCC(F)(F)F)c(OC)c4)cnc3c2)cn1
A. 8.00 to 11.00

Q. Give me measured pIC50, please, for this compound: COc1cc(-c2cnc3cc(-c4cnn(CC(=O)O)c4)ccn23)cc(OC)c1C(=O)NCC(F)(F)F
A. 8.00 to 11.00

Q. Give me measured pIC50, please, for this compound: COCCCNC(=O)c1c(OC)cc(-n2cnc3cc(-c4cnn(C)c4)ccc32)cc1OC
A. 6.30 to 7.00

Q. Give me measured pIC50, please, for this compound: COc1cc(-n2cnc3cc(-c4cnn(C)c4)ccc32)cc(OC)c1C(=O)N1CC(OCc2ccccc2)C1
A. 6.30 to 7.00

Q. Give me measured pIC50, please, for this compound: COc1cc(-n2cnc3cc(-c4cnnc(C)c4)ccc32)cc(OC)c1C(=O)NCC(F)(F)F
A. 7.00 to 8.00

* * *

Below, each entry is listed alongside its reported pIC50.
- experimentalSystem: SIK2 (Homo sapiens, UniProt Q9H0K1)
- Construct: purchased ThermoFisher Scientific PV4792
- Sequence (Q9H0K1 whole entry): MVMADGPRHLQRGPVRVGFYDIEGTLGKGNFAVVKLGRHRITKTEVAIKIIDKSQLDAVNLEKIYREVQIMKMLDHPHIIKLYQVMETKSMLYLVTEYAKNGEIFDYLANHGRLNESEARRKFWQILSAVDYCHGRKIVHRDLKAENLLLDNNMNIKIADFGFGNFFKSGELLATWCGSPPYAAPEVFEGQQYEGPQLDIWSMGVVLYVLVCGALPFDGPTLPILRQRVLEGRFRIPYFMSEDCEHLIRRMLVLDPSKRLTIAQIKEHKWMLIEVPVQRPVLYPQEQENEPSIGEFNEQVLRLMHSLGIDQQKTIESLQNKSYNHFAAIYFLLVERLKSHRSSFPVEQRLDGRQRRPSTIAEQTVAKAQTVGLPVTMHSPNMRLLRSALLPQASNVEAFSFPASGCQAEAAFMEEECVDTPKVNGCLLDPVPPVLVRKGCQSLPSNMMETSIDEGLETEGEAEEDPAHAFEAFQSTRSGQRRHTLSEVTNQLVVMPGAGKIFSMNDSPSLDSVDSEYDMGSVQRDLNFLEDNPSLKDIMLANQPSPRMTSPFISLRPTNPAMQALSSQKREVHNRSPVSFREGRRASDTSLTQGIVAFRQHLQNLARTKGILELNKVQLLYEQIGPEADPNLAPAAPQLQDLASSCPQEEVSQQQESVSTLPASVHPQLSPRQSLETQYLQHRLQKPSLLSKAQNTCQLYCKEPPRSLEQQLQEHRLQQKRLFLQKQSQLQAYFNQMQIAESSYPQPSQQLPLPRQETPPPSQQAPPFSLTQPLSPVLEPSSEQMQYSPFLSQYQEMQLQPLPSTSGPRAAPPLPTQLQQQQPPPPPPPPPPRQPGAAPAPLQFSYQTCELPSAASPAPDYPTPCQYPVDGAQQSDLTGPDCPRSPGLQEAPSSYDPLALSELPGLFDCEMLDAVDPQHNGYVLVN
- testDescription: biochemical
- studyConditions: 33P radioactive SIK kinase assay, AMARA peptide, 10 μM ATP
pIC50: −log10 of the molar value.

# annotated cases, reported pIC50 shown
1) COc1cc(-n2cnc3cc(-c4cnn(C)c4)ccc32)cc(OC)c1C(=O)NC(C)C(F)F (stereo not shown) [compound 91]: 7.00 to 8.00
2) CCNC(=O)c1c(OC)cc(-c2cnc3cc(-c4cnn(C5CCN(C)CC5)c4)ccn23)cc1OC(F)F [compound 148]: 8.00 to 11.00
3) COc1cc(-n2cnc3cc(-c4cnn(CCN5CCOCC5)c4)ccc32)cc(OC(F)F)c1C(=O)NC1CC1 [compound 56]: 8.00 to 11.00
4) CCC1(O)CN(C(=O)c2c(OC)cc(-n3cnc4cc(-c5cnn(C)c5)ccc43)cc2OC)C1 [compound 218]: 7.00 to 8.00
5) COc1cc(-c2cnc3cc(-c4cncnc4C(C)C)ccn23)cc(OC)c1C(=O)NCC(F)(F)F [compound 253]: < 6.30
6) COc1cc(-n2cnc3cc(-c4cnn(C)c4)ccc32)cc(OC)c1C(=O)Nc1cnc(C)cn1 [Cpd 70]: 7.00 to 8.00

As a next step, examine the molecule that follows.
Q. Give me measured pIC50, please, for this molecule: COc1cc(-n2cnc3cc(-c4ccc(N(C)C)nc4)ccc32)cc(OC)c1C(=O)NCC(F)(F)F [compound 37]
A. 6.30 to 7.00
